Catalogue of hERG current change (%, negative = inhibition) at 10uM readings, one per entry.
- study_system: human ether-à-go-go-related gene (hERG) potassium channel (human, UniProt Q12809);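 also: peak tail current of the secondary pulse compared with the same well before compound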
- Sequence (Q12809 whole entry, looked up): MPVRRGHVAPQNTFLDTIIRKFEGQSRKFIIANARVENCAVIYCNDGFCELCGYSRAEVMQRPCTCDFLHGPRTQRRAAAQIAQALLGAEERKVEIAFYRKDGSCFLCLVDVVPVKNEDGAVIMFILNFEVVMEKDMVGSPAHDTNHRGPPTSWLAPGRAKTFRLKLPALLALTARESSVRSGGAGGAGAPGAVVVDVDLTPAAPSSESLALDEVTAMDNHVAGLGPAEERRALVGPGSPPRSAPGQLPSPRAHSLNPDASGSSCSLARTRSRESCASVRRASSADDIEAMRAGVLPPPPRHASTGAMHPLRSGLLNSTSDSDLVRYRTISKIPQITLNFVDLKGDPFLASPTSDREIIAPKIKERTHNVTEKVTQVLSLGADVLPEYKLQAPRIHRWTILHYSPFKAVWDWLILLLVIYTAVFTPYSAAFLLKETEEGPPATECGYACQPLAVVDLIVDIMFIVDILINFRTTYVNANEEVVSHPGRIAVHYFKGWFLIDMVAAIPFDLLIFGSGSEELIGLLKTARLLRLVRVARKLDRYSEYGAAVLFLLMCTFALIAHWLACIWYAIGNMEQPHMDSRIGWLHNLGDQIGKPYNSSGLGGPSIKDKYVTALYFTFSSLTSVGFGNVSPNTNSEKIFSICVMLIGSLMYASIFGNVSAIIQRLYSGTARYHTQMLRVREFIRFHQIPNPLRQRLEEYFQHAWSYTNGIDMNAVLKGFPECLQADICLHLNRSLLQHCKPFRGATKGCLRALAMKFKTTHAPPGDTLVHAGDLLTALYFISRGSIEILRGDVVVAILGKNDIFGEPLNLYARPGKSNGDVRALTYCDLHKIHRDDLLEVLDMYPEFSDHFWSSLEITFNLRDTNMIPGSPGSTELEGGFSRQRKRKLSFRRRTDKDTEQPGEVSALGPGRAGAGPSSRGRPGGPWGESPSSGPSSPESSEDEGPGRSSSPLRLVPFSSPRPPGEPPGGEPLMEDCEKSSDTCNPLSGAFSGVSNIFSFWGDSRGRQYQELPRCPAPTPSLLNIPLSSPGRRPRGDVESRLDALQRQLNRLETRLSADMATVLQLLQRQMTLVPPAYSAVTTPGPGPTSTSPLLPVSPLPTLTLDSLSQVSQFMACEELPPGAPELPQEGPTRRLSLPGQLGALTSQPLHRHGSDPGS
- assay_explanation: primary screen, population patch clamp on CHO cells stably expressing hERG; higher = less effect of the substance
Hit rate of the full screen: of about 310,000 compounds, about 14,000 (4.5%) showed an effect of 50% or more. The effect is printed as a negative number. This excerpt belongs to a sample that is enriched for strong results.
attribute_measured: hERG current change (%, negative = inhibition) at 10uM (%)

{"columns": ["molecule", "reported_result"],
 "data": [
  ["Cc1cc(C)cc(N(C(=O)CNC(=O)c2ccco2)C(C(=O)NC2CCCCC2)c2ccncc2)c1 (stereo not shown)", -10],
  ["Cc1ccc2c(c1)NCCO2", 4.46],
  ["CCOC(=O)c1c(NC(=O)COc2ccccc2F)sc2c1CC(C)(C)NC2(C)C", 5.17],
  ["CCOC(=O)c1sc(NC(=O)CSc2nnnn2-c2ccccc2)c(C(=O)OCC)c1C", 4.34],
  ["CCOC(=O)c1c(NC(=O)CSc2nnnn2-c2ccccc2OCC)sc2c1CC(C)(C)NC2(C)C", -71.2],
  ["CCn1c(SCC(=O)NC2CCCC2)nnc1-c1ccncc1", 16.4],
  ["CCOC(=O)c1c(NC(=O)CSc2nnnn2-c2ccccc2)sc2c1CC(C)(C)NC2(C)C", -64.3]
]}
